Biological target: GlcNAc(b1-4)GlcNAc(b1-4)GlcNAc(b1-4)GlcNAc(b1-4)GlcNAc
Assay: glycan array binding signal (z-score within array); higher = stronger binding
Conditions: glycan notation: IUPAC condensed, linker removed
Many of the other results were omitted from the sample, so the strongest signals are more common in it than they were.
property_measured: glycan array binding signal (z-score)
// no unit string in output, number only

Reported glycan array binding signal (z-score) for MSMEG3662-2a (Mycobacterium smegmatis), A0QYH7_MYCS2 (protein) MGDTLTAGQKLERGGSLQSGNGAYTLTLQDDGNLVLYARDKAVWSTGTNGQDVVRAEVQTDGNFVLYTAEKPVWHTDTKGKKEVKLVLQDDRNLVLYAKDGPAWSSKTDTTEPPPPAPEPEKEAEVAPAAAEEAAPAPVAEPAPAEPAPAAPPPAPPAPRTYTVVSGDTLWAIAERFYGDGSKYQQIADASGIANPDLIHPGQVLTIP was 8.12
